FYI, the data here is from patent US8435980B2.

- Measured on: Cdc7 (BEV coexpressed huCDC7/DBF4) (Homo sapiens, UniProt O00311)
- Construct: made in house; host or cells: BEV (baculovirus expression vector) co-expression; insect cells are implied but no cell line is named
- Sequence (O00311 whole entry): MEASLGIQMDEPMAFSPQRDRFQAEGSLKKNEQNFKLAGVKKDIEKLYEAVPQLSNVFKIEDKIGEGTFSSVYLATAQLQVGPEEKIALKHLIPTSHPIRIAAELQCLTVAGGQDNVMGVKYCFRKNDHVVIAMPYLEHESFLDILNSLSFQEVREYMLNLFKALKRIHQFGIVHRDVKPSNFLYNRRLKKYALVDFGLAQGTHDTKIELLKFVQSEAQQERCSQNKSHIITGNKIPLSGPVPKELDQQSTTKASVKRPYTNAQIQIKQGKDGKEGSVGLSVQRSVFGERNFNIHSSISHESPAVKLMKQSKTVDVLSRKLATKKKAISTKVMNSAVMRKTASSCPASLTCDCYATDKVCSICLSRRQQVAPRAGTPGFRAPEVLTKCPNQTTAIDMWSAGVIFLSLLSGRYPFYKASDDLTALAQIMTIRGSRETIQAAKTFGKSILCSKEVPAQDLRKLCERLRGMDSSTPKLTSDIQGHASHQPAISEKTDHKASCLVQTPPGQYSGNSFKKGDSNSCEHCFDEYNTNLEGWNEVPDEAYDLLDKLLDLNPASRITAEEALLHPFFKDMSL
- Sequence (Q9UBU7 whole entry partner): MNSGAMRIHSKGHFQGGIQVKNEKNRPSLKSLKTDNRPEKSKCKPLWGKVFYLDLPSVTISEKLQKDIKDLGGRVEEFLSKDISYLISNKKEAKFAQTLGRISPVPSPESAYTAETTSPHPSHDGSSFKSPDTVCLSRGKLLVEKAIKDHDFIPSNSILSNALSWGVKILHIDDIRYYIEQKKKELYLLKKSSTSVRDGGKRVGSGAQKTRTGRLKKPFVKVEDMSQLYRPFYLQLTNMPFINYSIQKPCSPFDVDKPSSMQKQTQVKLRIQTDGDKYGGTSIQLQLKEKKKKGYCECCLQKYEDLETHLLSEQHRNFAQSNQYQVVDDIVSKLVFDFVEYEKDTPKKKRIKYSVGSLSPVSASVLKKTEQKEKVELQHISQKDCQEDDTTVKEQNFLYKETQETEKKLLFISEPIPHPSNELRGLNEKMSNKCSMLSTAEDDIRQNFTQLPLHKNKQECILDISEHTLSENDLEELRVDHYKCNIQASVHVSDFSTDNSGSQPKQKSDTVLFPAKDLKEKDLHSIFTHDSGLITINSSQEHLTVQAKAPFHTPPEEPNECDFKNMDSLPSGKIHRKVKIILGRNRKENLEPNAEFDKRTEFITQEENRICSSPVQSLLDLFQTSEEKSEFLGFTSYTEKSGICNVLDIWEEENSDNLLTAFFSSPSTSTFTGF
- Run description: Cdc7 enzyme inhibition assay ([33P]ATP, biotinylated peptide substrate, FlashPlate)
- Type: biochemical
- Test context: Table 3; enzyme inhibition data (Ki)
Property measured: Ki

1) Cn1cncc1COc1cnc2[nH]cc(-c3cc(Cl)nc(NC4CCCCC4)c3)c2c1 [Example 196] ... < 10 nM
2) Clc1cc(-c2c[nH]c3ncccc23)cc(N[C@H]2CC[C@H](NC3CCN(C4CCC4)CC3)CC2)n1 [Example 361] ... < 10 nM
3) CC(C)(C)OC(=O)N1CCC(C2CCC(Nc3cc(-c4c[nH]c5ncccc45)cc(Cl)n3)CC2)CC1 (stereo not shown) [Example 362] ... 10 to 100 nM
4) Fc1ccc(CN2CCC(C3CCC(Nc4cc(-c5c[nH]c6ncccc56)cc(Cl)n4)CC3)C2)cc1 (stereo not shown) [Example 198] ... < 10 nM

* * *

- Measured on: Cdc7 (BEV coexpressed huCDC7/DBF4) (Homo sapiens, UniProt O00311)
- Construct: made in house; host or cells: BEV (baculovirus expression vector) co-expression; insect cells are implied but no cell line is named
- Run description: Cdc7 enzyme inhibition assay ([33P]ATP, biotinylated peptide substrate, FlashPlate)
- Format: biochemical
Property measured: Ki

1. Clc1cc(-c2c[nH]c3ncccc23)cc(NC2CCOCC2)n1 ... < 10 nM
2. Clc1cc(-c2c[nH]c3ncccc23)cc(NCC2CCCNC2)n1 (stereo not shown) ... 10 to 100 nM
3. N[C@H]1CC[C@H](Nc2nc(Cl)cc(-c3c[nH]c4ncccc34)n2)CC1 ... < 10 nM
4. Clc1cc(-c2c[nH]c3ncccc23)cc(NCc2ccncc2)n1 ... 10 to 100 nM
5. Clc1cc(-c2c[nH]c3ncccc23)cc(NCc2cccnc2)n1 ... < 10 nM
6. Cc1cccc(CNc2cc(-c3c[nH]c4ncccc34)cc(Cl)n2)c1C ... 10 to 100 nM
7. CC(C)(CO)CCCNc1cc(-c2c[nH]c3ncccc23)cc(Cl)n1 ... < 10 nM
8. Clc1cc(-c2c[nH]c3ncccc23)nc(NC2CCCCC2)n1 ... < 10 nM
9. OCC(Cc1ccccc1)Nc1nc(Cl)cc(-c2c[nH]c3ncccc23)n1 (stereo not shown) ... 10 to 100 nM
10. O[C@H]1CC[C@H](Nc2cc(-c3c[nH]c4ncccc34)cc(Cl)n2)CC1 ... < 10 nM

* * *

- Measured on: Cdc7 (BEV coexpressed huCDC7/DBF4) (Homo sapiens)
- Construct: made in house; host or cells: BEV (baculovirus expression vector) co-expression; insect cells are implied but no cell line is named
- Run description: Cdc7 enzyme inhibition assay ([33P]ATP, biotinylated peptide substrate, FlashPlate)
- Type: biochemical
- Test context: Table 3; enzyme inhibition data (Ki)
- Procedure: Cdc7 (BEV coexpressed huCDC7/DBF4) is prepared internally. Cdc7 assays are conducted as follows with final concentrations as listed. […] Reactions are quenched after 1 hr by the addition of 90 μL stop buffer (50 mM EDTA, 2M NaCl). […] (Ki) for exemplary compounds.
pKi: −log10 of the molar value.
Quick list: pKi per entry.
Property measured: pKi

1. O=S(=O)(NCCNc1cc(-c2c[nH]c3ncccc23)cc(Cl)n1)C1CC1 [Example 89] ... > 8.00
2. Clc1cc(-c2c[nH]c3ncccc23)cc(Nc2ccc(N3CCN(CC4CCCCC4)CC3)cc2)n1 [Example 450] ... > 8.00
3. O=S(=O)(N[C@@H]1CCCC[C@H]1Nc1cc(-c2c[nH]c3ncccc23)cc(Cl)n1)C1CC1 [Example 330] ... 7.00 to 8.00
4. CS(=O)(=O)N[C@@H]1CCCC[C@@H]1Nc1cc(-c2c[nH]c3ncccc23)cc(Cl)n1 (relative stereo) [Example 132] ... > 8.00
5. O=C(N[C@H]1CC[C@H](Nc2cc(-c3c[nH]c4ncccc34)cc(Cl)n2)CC1)C1CN(Cc2ccccc2)C1 [Example 381] ... > 8.00
6. CN1CCC(C(=O)N[C@H]2CC[C@H](Nc3cc(-c4c[nH]c5ncccc45)cc(Cl)n3)CC2)C1 (relative stereo) [Example 125] ... > 8.00
7. COc1cnc2[nH]cc(-c3cc(Cl)nc(N[C@H]4CC[C@H](NS(C)(=O)=O)CC4)c3)c2c1 [Example 220] ... > 8.00

* * *

- Measured on: Cdc7 (BEV coexpressed huCDC7/DBF4) (Homo sapiens)
- Construct: made in house; host or cells: BEV (baculovirus expression vector) co-expression; insect cells are implied but no cell line is named
- Run description: Cdc7 enzyme inhibition assay ([33P]ATP, biotinylated peptide substrate, FlashPlate)
- Format: biochemical
- Test context: Table 2; Comparative Example lacking the chloro substituent versus the chloro Example
Property measured: Ki ratio comparisons (Ki Comparative Example/Ki Example)

1) N#Cc1cc(-c2c[nH]c3ncccc23)cc(N2CCCCC2)n1 [Comparative Example 8, reference compound] ... 2
2) N#Cc1cc(-c2c[nH]c3ncccc23)cc(NCc2ccccc2)n1 [Comparative Example 6, reference compound] ... 5
3) NC(=O)c1cc(-c2c[nH]c3ncccc23)cc(N2CCCCC2)n1 [Comparative Example 9, reference compound] ... 84
4) N#Cc1cc(-c2c[nH]c3ncccc23)cc(NC2CCCCC2)n1 [Comparative Example 5, reference compound] ... 9
5) NC(=O)c1cc(-c2c[nH]c3ncccc23)cc(N[C@H]2CC[C@H](O)CC2)n1 [Comparative Example 11, reference compound] ... 134
6) Cc1cc(-c2c[nH]c3ncccc23)cc(NC2CCCCC2)n1 [Comparative Example 2, reference compound] ... 14
7) Cc1cc(-c2c[nH]c3ncccc23)cc(NCc2ccccc2)n1 [Comparative Example 3, reference compound] ... 75
8) NC(=O)c1cc(-c2c[nH]c3ncccc23)cc(NCc2ccccc2)n1 [Comparative Example 7, reference compound] ... 45
9) N#Cc1cc(-c2c[nH]c3ncccc23)cc(N[C@H]2CC[C@H](O)CC2)n1 [Comparative Example 10, reference compound] ... 10
10) c1cnc2[nH]cc(-c3ccnc(NC4CCCCC4)c3)c2c1 [Comparative Example 1, reference compound] ... 10
11) N[C@H]1CC[C@H](Nc2nccc(-c3c[nH]c4ncccc34)n2)CC1 [Comparative Example 13, reference compound] ... 12
12) c1cnc2[nH]cc(-c3ccnc(NC4CCCCC4)n3)c2c1 [Comparative Example 12, reference compound] ... 3
13) Cc1cc(-c2c[nH]c3ncccc23)cc(N[C@H]2CC[C@H](O)CC2)n1 [Comparative Example 4, reference compound] ... 54

* * *

- Measured on: Cdc7 (BEV coexpressed huCDC7/DBF4) (Homo sapiens, UniProt O00311)
- Construct: made in house; host or cells: BEV (baculovirus expression vector) co-expression; insect cells are implied but no cell line is named
- Run description: Cdc7 enzyme inhibition assay ([33P]ATP, biotinylated peptide substrate, FlashPlate)
- Type: biochemical
- Description: Cdc7 (BEV coexpressed huCDC7/DBF4) is prepared internally. Cdc7 assays are conducted as follows with final concentrations as listed. […] Reactions are quenched after 1 hr by the addition of 90 μL stop buffer (50 mM EDTA, 2M NaCl). […] (Ki) for exemplary compounds.
pKi: −log10 of the molar value.
Property measured: pKi

1. Clc1cc(-c2c[nH]c3ncccc23)cc(NCC2CCOCC2)n1 ... > 8.00
2. OCCCCNc1cc(-c2c[nH]c3ncccc23)cc(Cl)n1 ... > 8.00
3. COC[C@H](Cc1ccccc1)Nc1nc(Cl)cc(-c2c[nH]c3ncccc23)n1 ... 7.00 to 8.00
4. Cc1cccc(-c2cc(-c3c[nH]c4ncccc34)cc(Cl)n2)c1C ... 7.00 to 8.00
5. Clc1cc(-c2c[nH]c3ncccc23)cc(NCC2CCCO2)n1 (stereo not drawn) ... > 8.00
6. NC1CCC(Nc2cc(-c3c[nH]c4ncccc34)cc(Cl)n2)CC1 (stereo not drawn) ... > 8.00
7. OCCNc1cc(-c2c[nH]c3ncccc23)cc(Cl)n1 ... > 8.00
8. NC1CCCC(Nc2cc(-c3c[nH]c4ncccc34)cc(Cl)n2)C1 (stereo not drawn) ... > 8.00
9. Clc1cc(-c2c[nH]c3ncccc23)cc(NCC2CCCCO2)n1 (stereo not drawn) ... 7.00 to 8.00

* * *

- Measured on: Cdc7 (BEV coexpressed huCDC7/DBF4) (Homo sapiens)
- Construct: made in house; host or cells: BEV (baculovirus expression vector) co-expression; insect cells are implied but no cell line is named
- Run description: Cdc7 enzyme inhibition assay ([33P]ATP, biotinylated peptide substrate, FlashPlate)
- Format: biochemical
- Test context: Table 3; enzyme inhibition data (Ki)
Property measured: Ki

1. O=C(O)c1cnc2[nH]cc(-c3cc(Cl)nc(NC4CCCCC4)c3)c2c1 ... < 0.01 µM
2. CC(C)(C)OC(=O)N1CCC1C(=O)NC1CCCC(Nc2cc(-c3c[nH]c4ncccc34)cc(Cl)n2)C1 (stereo not shown) ... < 0.01 µM
3. CCNC(=O)NC1CCCC(Nc2cc(-c3c[nH]c4ncccc34)cc(Cl)n2)C1 (stereo not shown) ... < 0.01 µM
4. O=C(NCC1CCCCC1)NC1CCCC(Nc2cc(-c3c[nH]c4ncccc34)cc(Cl)n2)C1 (stereo not shown) ... 0.01 to 0.1 µM
5. Clc1cc(-c2c[nH]c3ncccc23)cc(NC2CCCC(N3CCCCC3)C2)n1 (stereo not shown) ... < 0.01 µM
6. N#Cc1cnc2[nH]cc(-c3cc(Cl)nc(NC4CCCCC4)c3)c2c1 ... 0.01 to 0.1 µM
7. CNCC(=O)N[C@H]1CC[C@H](Nc2cc(-c3c[nH]c4ncc(OC)cc34)cc(Cl)n2)CC1 ... < 0.01 µM
8. COc1cc(Cl)ccc1C(=O)N[C@H]1CC[C@H](Nc2cc(-c3c[nH]c4ncccc34)cc(Cl)n2)CC1 ... < 0.01 µM
9. O=C(N[C@H]1CC[C@H](Nc2cc(-c3c[nH]c4ncccc34)cc(Cl)n2)CC1)C1CN(Cc2ccc3cc[nH]c3c2)C1 ... < 0.01 µM
10. CC(C)CN[C@H]1CC[C@H](Nc2cc(-c3c[nH]c4ncccc34)cc(Cl)n2)CC1 ... < 0.01 µM
11. CS(=O)(=O)N1CCC(Nc2cc(-c3c[nH]c4ncccc34)cc(Cl)n2)CC1 ... < 0.01 µM
12. CC(=O)NC1CCC(N[C@H]2CC[C@H](Nc3cc(-c4c[nH]c5ncccc45)cc(Cl)n3)CC2)CC1 (stereo partly shown) ... < 0.01 µM
13. CC(=O)N[C@H]1CC[C@H](Oc2nc(Cl)cc(-c3c[nH]c4ncccc34)n2)CC1 ... 0.01 to 0.1 µM
14. O=S(=O)(NC1CCCC(Nc2cc(-c3c[nH]c4ncccc34)cc(Cl)n2)C1)c1ccco1 (stereo not shown) ... < 0.01 µM
15. NCCOCCOCCNc1nc(Cl)cc(-c2c[nH]c3ncccc23)n1 ... < 0.01 µM
16. Cc1noc(C)c1S(=O)(=O)NCC(C)(C)CNc1cc(-c2c[nH]c3ncccc23)cc(Cl)n1 ... 0.01 to 0.1 µM
